# System: 422866-222-R5-J1-PDC complex spheroids viability
# experiment_description: Anticancer human tumor 422866-222-R5-J1-PDC patient-derived pancreatic adenocarcinoma cell line growth inhibition [RAS]; active means viability on the fitted dose curve at most 10% of control; inactive means the rest
# experimental_parameters: second compound 3.16 µM; first compound 10 µM
Your reply should match one of these outcome classes. T = active, F = inactive

Look over these answered cases.
compound: C[C@@H](NC(=O)c1ncnc(N)c1Cl)c1ncc(C(=O)Nc2cc(C(F)(F)F)c(Cl)cn2)s1 + C#Cc1c(F)ccc2cc(O)cc(-c3ncc4c(N5CC6CCC(C5)N6)nc(OCC56CCCN5CC(F)C6)nc4c3F)c12
system_tested: 422866-222-R5-J1-PDC complex spheroids viability
class_assignment: F

compound: CC(=O)OC12COC1CC(O)C1(C)C(=O)C(O)C3=C(C)C(OC(=O)C(O)C(NC(=O)OC(C)(C)C)c4ccccc4)CC(O)(C(OC(=O)c4ccccc4)C21)C3(C)C (stereo not drawn) + C#Cc1c(F)ccc2cc(O)cc(-c3ncc4c(N5CC6CCC(C5)N6)nc(OCC56CCCN5CC(F)C6)nc4c3F)c12
system_tested: 422866-222-R5-J1-PDC complex spheroids viability
class_assignment: F

compound: NC1c2ccccc2OC12CCN(c1cnc3c(N4CCCc5ncccc54)n[nH]c3n1)CC2 (stereo not drawn) + C#Cc1c(F)ccc2cc(O)cc(-c3ncc4c(N5CC6CCC(C5)N6)nc(OCC56CCCN5CC(F)C6)nc4c3F)c12
system_tested: 422866-222-R5-J1-PDC complex spheroids viability
class_assignment: F

compound: CC(Nc1ccc2c(c1)OCCn1cc(N3C(=O)OCC3C(F)F)nc1-2)C(N)=O (stereo not drawn) + C#Cc1c(F)ccc2cc(O)cc(-c3ncc4c(N5CC6CCC(C5)N6)nc(OCC56CCCN5CC(F)C6)nc4c3F)c12
system_tested: 422866-222-R5-J1-PDC complex spheroids viability
class_assignment: T

compound: CCC(CC)c1cc(NC2CCC(N)C2)n2nccc2n1 (stereo not drawn) + C#Cc1c(F)ccc2cc(O)cc(-c3ncc4c(N5CC6CCC(C5)N6)nc(OCC56CCCN5CC(F)C6)nc4c3F)c12
system_tested: 422866-222-R5-J1-PDC complex spheroids viability
class_assignment: F

Request: Which outcome did this test record for the compound CC(C)NCC(C(=O)N1CCN(c2ncnc3c2C(C)CC3O)CC1)c1ccc(Cl)cc1 (stereo not drawn) + C#Cc1c(F)ccc2cc(O)cc(-c3ncc4c(N5CC6CCC(C5)N6)nc(OCC56CCCN5CC(F)C6)nc4c3F)c12 ?
Response: F

Request: Answer briefly: the call reported for CC1(O)CCCC1n1c(=O)c(C(F)F)cc2cnc(NC3CCN(S(C)(=O)=O)CC3)nc21 (stereo not drawn) + C#Cc1c(F)ccc2cc(O)cc(-c3ncc4c(N5CC6CCC(C5)N6)nc(OCC56CCCN5CC(F)C6)nc4c3F)c12 in this assay.
Response: F

Request: Give the logged outcome of this assay for the following compound: Cc1nc(N2CCC3(CC2)COC(C)C3N)c(CO)nc1Sc1ccnc(N)c1Cl (stereo not drawn) + C#Cc1c(F)ccc2cc(O)cc(-c3ncc4c(N5CC6CCC(C5)N6)nc(OCC56CCCN5CC(F)C6)nc4c3F)c12
Response: F

====

# Test system: 422866-222-R5-J1-PDC complex spheroids viability
# experiment_description: Anticancer human tumor 422866-222-R5-J1-PDC cell line growth inhibition [RAS];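 further: spheroids exposed to compounds for 7 days; 100% = DMSO vehicle control viability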
# experimental_parameters: second compound 0.316 µM; first compound 0.03 µM; stronger effect = lower value
readout_type: viability, T/C (%)
Give bare numbers, in %.

Some solved cases for reference:
compound: CC1(C)CCC(Nc2ncc(C(F)(F)F)c(-c3c[nH]c4c(P(C)(C)=O)c(C#N)ccc34)n2)CN1 (centres undefined) + C=CC(=O)N1CCN(c2nc(OCC3CCCN3C)nc3c(F)c(-c4nc(N)cc(C)c4C(F)(F)F)c(Cl)cc23)C(C)C1
readout_type: viability, T/C
result_unit: %
value: 24.6
--
compound: CCc1c2c(nc3ccc(O)cc13)-c1cc3c(c(=O)n1C2)COC(=O)[C@]3(O)CC + C=CC(=O)N1CCN(c2nc(OCC3CCCN3C)nc3c(F)c(-c4nc(N)cc(C)c4C(F)(F)F)c(Cl)cc23)C(C)C1
readout_type: viability, T/C
result_unit: %
value: 14.2
--
compound: CCc1c2c(nc3ccc(O)cc13)-c1cc3c(c(=O)n1C2)COC(=O)[C@]3(O)CC + C#Cc1c(F)ccc2cc(O)cc(-c3ncc4c(N5CC6CCC(C5)N6)nc(OCC56CCCN5CC(F)C6)nc4c3F)c12
readout_type: viability, T/C
result_unit: %
value: 56.5

Request: Requested read-out: viability, T/C. Entry: CC1(C)CCC(Nc2ncc(C(F)(F)F)c(-c3c[nH]c4c(P(C)(C)=O)c(C#N)ccc34)n2)CN1 (centres undefined) + C#Cc1c(F)ccc2cc(O)cc(-c3ncc4c(N5CC6CCC(C5)N6)nc(OCC56CCCN5CC(F)C6)nc4c3F)c12
Response: 45.1

====

# Test system: 422866-222-R5-J1-PDC complex spheroids viability
# experiment_description: Anticancer human tumor 422866-222-R5-J1-PDC cell line growth inhibition [RAS];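 further: spheroids exposed to compounds for 7 days; 100% = DMSO vehicle control viability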
# experimental_parameters: second compound 0.316 µM; first compound 0.316 µM; stronger effect = lower value
viability, T/C strictly less than 30% = condition met. Otherwise condition not met.

molecule: CC(C)NCC(C(=O)N1CCN(c2ncnc3c2C(C)CC3O)CC1)c1ccc(Cl)cc1 (stereo not given) + C#Cc1c(F)ccc2cc(O)cc(-c3ncc4c(N5CC6CCC(C5)N6)nc(OCC56CCCN5CC(F)C6)nc4c3F)c12
system_tested: 422866-222-R5-J1-PDC complex spheroids viability
class_assignment: condition not met

molecule: CC1(O)CCCC1n1c(=O)c(C(F)F)cc2cnc(NC3CCN(S(C)(=O)=O)CC3)nc21 (stereo not given) + C#Cc1c(F)ccc2cc(O)cc(-c3ncc4c(N5CC6CCC(C5)N6)nc(OCC56CCCN5CC(F)C6)nc4c3F)c12
system_tested: 422866-222-R5-J1-PDC complex spheroids viability
class_assignment: condition not met

molecule: C=CC(=O)N1CCN(c2nc(OCC3CCCN3C)nc3c(F)c(-c4nc(N)cc(C)c4C(F)(F)F)c(Cl)cc23)C(C)C1 (stereo not given) + C#Cc1c(F)ccc2cc(O)cc(-c3ncc4c(N5CC6CCC(C5)N6)nc(OCC56CCCN5CC(F)C6)nc4c3F)c12
system_tested: 422866-222-R5-J1-PDC complex spheroids viability
class_assignment: condition met

molecule: O=C(c1ccc(F)c(F)c1Nc1ccc(I)cc1F)N1CC(O)([C@@H]2CCCCN2)C1 + C#Cc1c(F)ccc2cc(O)cc(-c3ncc4c(N5CC6CCC(C5)N6)nc(OCC56CCCN5CC(F)C6)nc4c3F)c12
system_tested: 422866-222-R5-J1-PDC complex spheroids viability
class_assignment: condition not met

For the next question, use this molecule.
Request: Take the molecule CC(C)NCC(C(=O)N1CCN(c2ncnc3c2C(C)CC3O)CC1)c1ccc(Cl)cc1 (stereo not given) + C=CC(=O)N1CCN(c2nc(OCC3CCCN3C)nc3c(F)c(-c4nc(N)cc(C)c4C(F)(F)F)c(Cl)cc23)C(C)C1 and say whether its viability, T/C is less than 30%.
Response: condition met

====

# Test system: 422866-222-R5-J1-PDC complex spheroids viability
# experiment_description: Anticancer human tumor 422866-222-R5-J1-PDC cell line growth inhibition [RAS];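 further: spheroids exposed to compounds for 7 days; 100% = DMSO vehicle control viability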
# experimental_parameters: second compound 0.0949 µM; first compound 0.316 µM; stronger effect = lower value
readout_type: viability, T/C (%)
Answers are plain numbers, in %.

compound: C=CC(=O)N1CCN(c2nc(OCC3CCCN3C)nc3c(F)c(-c4nc(N)cc(C)c4C(F)(F)F)c(Cl)cc23)C(C)C1 (stereo not drawn) + CCn1c(-c2cc(N3CCN(C)CC3)cnc2C(C)OC)c2c3cc(ccc31)-c1csc(n1)CC(NC(=O)C1CC1C)C(=O)N1CCCC(N1)C(=O)OCC(C)(C)C2
result_unit: %
value: 21.3

compound: NC1c2ccccc2OC12CCN(c1cnc3c(N4CCCc5ncccc54)n[nH]c3n1)CC2 (stereo not drawn) + CCn1c(-c2cccnc2C(C)OC)c2c3cc(ccc31)N1CCOC(CC(NC(=O)C(C(C)C)N(C)C(=O)C3(F)CCN(C(=O)C#CC(C)(C)N(C)C)CC3)C(=O)N3CCCC(N3)C(=O)OCC(C)(C)C2)C1
result_unit: %
value: 13.6

compound: O=C(c1ccc(F)c(F)c1Nc1ccc(I)cc1F)N1CC(O)([C@@H]2CCCCN2)C1 + CCn1c(-c2cccnc2C(C)OC)c2c3cc(ccc31)N1CCOC(CC(NC(=O)C(C(C)C)N(C)C(=O)C3(F)CCN(C(=O)C#CC(C)(C)N(C)C)CC3)C(=O)N3CCCC(N3)C(=O)OCC(C)(C)C2)C1
result_unit: %
value: 11.8

compound: CC1(O)CCCC1n1c(=O)c(C(F)F)cc2cnc(NC3CCN(S(C)(=O)=O)CC3)nc21 (stereo not drawn) + CCn1c(-c2cccnc2C(C)OC)c2c3cc(ccc31)N1CCOC(CC(NC(=O)C(C(C)C)N(C)C(=O)C3(F)CCN(C(=O)C#CC(C)(C)N(C)C)CC3)C(=O)N3CCCC(N3)C(=O)OCC(C)(C)C2)C1
result_unit: %
value: 22.4

compound: Nc1ccn(C2OC(CO)C(O)C2(F)F)c(=O)n1 (stereo not drawn) + CCn1c(-c2cc(N3CCN(C)CC3)cnc2C(C)OC)c2c3cc(ccc31)-c1csc(n1)CC(NC(=O)C1CC1C)C(=O)N1CCCC(N1)C(=O)OCC(C)(C)C2
result_unit: %
value: 16.6

Below are 3 compounds. Give each one its viability, T/C.
1. Cc1nc(N2CCC3(CC2)COC(C)C3N)c(CO)nc1Sc1ccnc(N)c1Cl (stereo not drawn) + CCn1c(-c2cc(N3CCN(C)CC3)cnc2C(C)OC)c2c3cc(ccc31)-c1csc(n1)CC(NC(=O)C1CC1C)C(=O)N1CCCC(N1)C(=O)OCC(C)(C)C2
2. C=CC(=O)Nc1cc(Nc2nccc(-c3cn(C)c4ccccc34)n2)c(OC)cc1N(C)CCN(C)C + CCn1c(-c2cc(N3CCN(C)CC3)cnc2C(C)OC)c2c3cc(ccc31)-c1csc(n1)CC(NC(=O)C1CC1C)C(=O)N1CCCC(N1)C(=O)OCC(C)(C)C2
3. Cc1nc(N2CCC3(CC2)COC(C)C3N)c(CO)nc1Sc1ccnc(N)c1Cl (stereo not drawn) + CCn1c(-c2cccnc2C(C)OC)c2c3cc(ccc31)N1CCOC(CC(NC(=O)C(C(C)C)N(C)C(=O)C3(F)CCN(C(=O)C#CC(C)(C)N(C)C)CC3)C(=O)N3CCCC(N3)C(=O)OCC(C)(C)C2)C1

Response:
[20, 16.1, 13.9]
